A collection of compounds and their measured Tmax
# method: Tmax in Wistar Han rat plasma 10 mg/kg, po measured for 15 to 1440 mins by LC-MS/MS analysis
# Format: ADME, organism-based
# experimentalContext: time 15-1440 min
testReadout: Tmax (h)

smiles | outputUnit | numericReadout
CCC(=O)CCCCC[C@H](NC(=O)[C@H]1CC12CCN(CC)CC2)c1ncc(-c2cc3cccnc3nc2OC)o1 | h | 3
CCC(=O)CCCCC[C@H](NC(=O)[C@H]1CC12CCN(C)CC2)c1ncc(-c2cc3ccc(C)nc3cc2OC)[nH]1 | h | 5
CCC(=O)CCCCC[C@H](NC(=O)[C@H]1CC12CCN(C)CC2)c1ncc(-c2cc3cccnc3cc2OC)[nH]1 | h | 2.1
CCC(=O)CCCCC[C@H](NC(=O)[C@H]1CC12CCN(C)CC2)c1ncc(-c2cc3ccc(C)nc3cc2F)o1 | h | 2
CCC(=O)CCCCC[C@H](NC(=O)[C@H]1CC12CCN(CC)CC2)c1ncc(-c2cc3ccc(C)nc3cc2OC)[nH]1 | h | 2.1
CCC(=O)CCCCC[C@H](NC(=O)[C@H]1CC12CCN(CC)CC2)c1ncc(-c2cc3ccc(C)nc3cc2OC)o1 | h | 5
CCC(=O)CCCCC[C@H](NC(=O)[C@H]1CC12CCN(C(C)C)CC2)c1ncc(-c2cc3ccc(C)nc3cc2OC)[nH]1 | h | 2.1
CCC(=O)CCCCC[C@H](NC(=O)[C@H]1CC12CCN(C)CC2)c1ncc(-c2cc3ccc(C)nc3cc2OC)o1 | h | 4

---

# method: Tmax in Beagle dog plasma 2 mg/kg, po measured for 15 to 1440 mins by LC-MS/MS analysis
# Type: ADME, organism-based, Canis lupus familiaris
# experimentalContext: time 15-1440 min

smiles | Tmax
CCC(=O)CCCCC[C@H](NC(=O)[C@H]1CC12CCN(CC)CC2)c1ncc(-c2cc3ccc(C)nc3cc2OC)[nH]1 | 1.3 h
CCC(=O)CCCCC[C@H](NC(=O)[C@H]1CC12CCN(CC)CC2)c1ncc(-c2cc3ccc(C)nc3cc2OC)o1 | 3 h
CCC(=O)CCCCC[C@H](NC(=O)[C@H]1CC12CCN(C)CC2)c1ncc(-c2cc3ccc(C)nc3cc2OC)o1 | 3 h

---

# method: Half life in Beagle dog plasma 1 mg/kg, iv by LC-MS/MS analysis
# Type: ADME, organism-based, Canis lupus familiaris

smiles | outputUnit | half-life
CCC(=O)CCCCC[C@H](NC(=O)[C@H]1CC12CCN(CC)CC2)c1ncc(-c2cc3ccc(C)nc3cc2OC)o1 | h | 91
CCC(=O)CCCCC[C@H](NC(=O)[C@H]1CC12CCN(CC)CC2)c1ncc(-c2cc3ccc(C)nc3cc2OC)[nH]1 | h | 19
CCC(=O)CCCCC[C@H](NC(=O)[C@H]1CC12CCN(C)CC2)c1ncc(-c2cc3ccc(C)nc3cc2OC)o1 | h | 43

---

# method: Clearance in Wistar Han rat plasma 2 mg/kg, iv measured for 2 to 1440 mins by LC-MS/MS analysis
# Assay type: ADME, organism-based
# experimentalContext: time 2-1440 min
molecules and their reported clearance

smiles | outputUnit | clearance
CCC(=O)CCCCC[C@H](NC(=O)[C@H]1CC12CCN(CC)CC2)c1ncc(-c2cc3cccnc3nc2OC)o1 | mL/min/kg | 6
CCC(=O)CCCCC[C@H](NC(=O)[C@H]1CC12CCN(CC)CC2)c1ncc(-c2cc3ccc(C)nc3cc2OC)[nH]1 | mL/min/kg | 51
CCC(=O)CCCCC[C@H](NC(=O)[C@H]1CC12CCN(C)CC2)c1ncc(-c2ccc3nc(C)ccc3c2)[nH]1 | mL/min/kg | 45
